Data origin, for the record: BindingDB's records for doi:10.7270/Q2CZ35MZ

Biological target: Bcl-2-like protein 2 (Homo sapiens)
Sequence (Q92843 whole entry): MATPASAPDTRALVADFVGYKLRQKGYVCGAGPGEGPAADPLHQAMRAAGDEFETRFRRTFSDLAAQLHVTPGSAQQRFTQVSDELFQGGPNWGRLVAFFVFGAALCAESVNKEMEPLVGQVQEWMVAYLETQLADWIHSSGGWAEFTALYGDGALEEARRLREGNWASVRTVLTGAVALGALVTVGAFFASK
Assay: Bcl-W/Bim complex disruptors – biochemical, multiplexed, bead-based flow cytometry, HTS hits, confirmation (AID 2081)
Settings: inactive by the depositor's call
parameter: EC50 (µM)

Consider the following illustrative entries.
| compound | unit | readout number |
| --- | --- | --- |
| COc1ccc(CCNC(=O)c2ccc3nc(-c4ccco4)c(-c4ccco4)nc3c2)cc1OC | µM | 20.8 |
| COc1cc(/N=C2\SSNC2Cl)c(OC)cc1Cl (stereo not drawn) | µM | 23 |

a: CNC1CCC(Br)CC(C(=O)C=Cc2cccc(OC)c2OC)C1=O (stereo not drawn)
b: O=C(/C=C/c1ccc(-c2ccccc2[N+](=O)[O-])o1)c1ccccc1
c: O=C(NCc1ccccc1)c1ccc2nc(-c3ccco3)c(-c3ccco3)nc2c1
Data request: Sort by EC50, descending. State the ranking by listing the labels in the requested order.
Data returned: a, b, c
